- system_name: Chromobox protein homolog 7 (Homo sapiens)
- Sequence (O95931 whole entry): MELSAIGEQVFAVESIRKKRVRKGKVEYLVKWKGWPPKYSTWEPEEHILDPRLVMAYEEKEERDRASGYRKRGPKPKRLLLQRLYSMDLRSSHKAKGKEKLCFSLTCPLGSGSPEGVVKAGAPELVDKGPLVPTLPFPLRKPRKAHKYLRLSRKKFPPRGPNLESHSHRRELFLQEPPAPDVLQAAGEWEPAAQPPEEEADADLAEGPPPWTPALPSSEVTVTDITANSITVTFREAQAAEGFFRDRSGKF
- test_name: Antagonist activity at recombinant human C-terminal His-tagged CBX7 chromodomain (8 to 62 residues) expressed in Escherichia coli Rosetta BL21(DE3)pLysS using biotin-labeled UNC4195 measured after 30 mins by AlphaScreen assay
Numbered stars: 1 amine (or outer) side, 2 acyl side, 3 side chain; on linkers, the order of the positions; unused ones are H or OH. Square brackets hold non-standard residues; d marks the D form. Peptide text beside a SMILES is read from it. * marks the point of attachment. X14 = CCCN(CCCC[C@H](N[*:1])C(=O)[*:2])C(C)C; X8 = O=C([C@H](CCCCNC1CC2CCC1C2)N[*:1])[*:2]; Phe(4-CH2NH2) = NCc1ccc(C[C@H](N)C(=O)O)cc1; Acetyl(2-naphthyl) = O=C(Cc1ccc2ccccc2c1)*; Benzoyl(4-tBu) = CC(C)(C)c1ccc(C(=O)*)cc1; Lys(Et2) = CCN(CC)CCCC[C@H](N)C(=O)O; Benzoyl(4-OMe) = COc1ccc(C(=O)*)cc1; X18 = O=C(Cc1c[nH]c2ccccc12)*; Boc = CC(C)(C)OC(=O)*; Bz = O=C(c1ccccc1)*
pIC50 by entry:
Note: pIC50 values are expressed as the negative base-10 logarithm of concentration in M.

Examples from the recorded data:
Which value of pIC50 has been reported for CCN(CC)CCCC[C@H](NC(=O)[C@H](CC(C)C)NC(=O)[C@H](C)NC(=O)[C@H](Cc1ccc(CNC(=O)OC(C)(C)C)cc1)NC(=O)c1ccc(C(C)(C)C)cc1)C(=O)N[C@@H](CO)C(=O)OC ({Benzoyl(4-tBu)}-[Phe(4-CH2NH2)](Boc)AL[Lys(Et2)]S-OMe) in the records? 7.25

Which value of pIC50 has been reported for CCN(CC)CCCC[C@H](NC(=O)[C@H](CC(C)C)NC(=O)[C@H](C)NC(=O)[C@H](Cc1ccccc1)NC(=O)c1ccc(OC)cc1)C(=O)N[C@@H](CO)C(=O)OC ({Benzoyl(4-OMe)}-FAL[Lys(Et2)]S-OMe) in the records? 6.60

Which value of pIC50 has been reported for COC(=O)[C@H](CO)NC(=O)[C@H](CCCCNC1CC2CCC1C2)NC(=O)[C@H](CC(C)C)NC(=O)[C@H](C)NC(=O)[C@H](Cc1ccccc1)NC(=O)CNC(=O)c1ccccc1 (some centres not stated) (Bz-GFAL[X8]S-OMe) in the records? 4.29

Which value of pIC50 has been reported for CCN(CC)CCCC[C@H](NC(=O)[C@H](CC(C)C)NC(=O)[C@H](C)NC(=O)[C@H](Cc1ccc(CN)cc1)NC(=O)c1ccc(C(C)(C)C)cc1)C(=O)N[C@@H](CO)C(=O)OC ({Benzoyl(4-tBu)}-[Phe(4-CH2NH2)]AL[Lys(Et2)]S-OMe) in the records? 7.20

Which value of pIC50 has been reported for CCCN(CCCC[C@H](NC(=O)[C@H](CC(C)C)NC(=O)[C@H](C)NC(=O)[C@H](Cc1ccccc1)NC(=O)c1ccc(C(C)(C)C)cc1)C(=O)N[C@@H](CO)C(=O)OC)C(C)C ({Benzoyl(4-tBu)}-FAL[X14]S-OMe) in the records? 7.49

---
Which value of pIC50 has been reported for CCN(CC)CCCC[C@H](NC(=O)[C@H](CC(C)C)NC(=O)[C@H](C)NC(=O)[C@H](Cc1ccccc1)NC(=O)Cc1ccc2ccccc2c1)C(=O)N[C@@H](CO)C(=O)OC ({Acetyl(2-naphthyl)}-FAL[Lys(Et2)]S-OMe) in the records? 5.96

Which value of pIC50 has been reported for CCN(CC)CCCC[C@H](NC(=O)[C@H](CC(C)C)NC(=O)[C@H](C)NC(=O)[C@H](Cc1ccccc1)NC(=O)Cc1c[nH]c2ccccc12)C(=O)N[C@@H](CO)C(=O)OC (X18-FAL[Lys(Et2)]S-OMe) in the records? 5.77
